- EXPERIMENTAL SYSTEM: 5HT2A (Homo sapiens (Human))
- METHOD NOTES: 5HT2A FLIPR (Ca2+ mobilization)
METRIC NAME: IC50 (µM)
Give bare numbers, in µM.

Request: Can you share its IC50? I mean this compound: O=C1CCc2ccc(OCCCCN3CCCN(c4cccc(Cl)c4Cl)CC3)nc2N1 [Compound 3]
Result: 0.66

* * *

Kindly supply the reported AUC(0-t) values for the records listed here.
- METHOD NOTES: in vivo
- CONDITION SET: mouse, brain
Answers are plain numbers, in ng·h/mL.

{"MOLECULE": "O=C1CCc2ccc(OCCCCN3CCCN(c4cccc(Cl)c4Cl)CC3)nc2N1", "METRIC NAME": "AUC(0-t)", "UNIT STRING": "ng·h/mL", "MEASURED": 267}

Now for the molecule whose AUC(0-t) we want.
Request: Can you share its AUC(0-t)? I mean this molecule: O=C1CCc2ccc(OCCCCN3CCN(c4cccc(Cl)c4Cl)CC3)cc2N1 [Aripiprazole, aripiprazole, reference compound]
Result: 1100

* * *

- EXPERIMENTAL SYSTEM: D2 receptors (Homo sapiens (Human), UniProt P14416)
- Sequence (P14416 whole entry): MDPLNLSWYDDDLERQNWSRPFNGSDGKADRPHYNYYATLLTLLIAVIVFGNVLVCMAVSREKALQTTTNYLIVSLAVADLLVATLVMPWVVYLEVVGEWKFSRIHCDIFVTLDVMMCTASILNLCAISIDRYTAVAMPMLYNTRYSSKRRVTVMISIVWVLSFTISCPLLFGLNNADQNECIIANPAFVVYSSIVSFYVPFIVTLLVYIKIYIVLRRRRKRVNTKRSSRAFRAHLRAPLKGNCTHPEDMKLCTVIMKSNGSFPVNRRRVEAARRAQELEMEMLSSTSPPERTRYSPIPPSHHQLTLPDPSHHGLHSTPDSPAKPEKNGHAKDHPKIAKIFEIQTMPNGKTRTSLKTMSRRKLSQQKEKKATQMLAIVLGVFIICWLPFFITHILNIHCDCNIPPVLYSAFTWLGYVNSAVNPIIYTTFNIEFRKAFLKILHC
- METHOD NOTES: CHO-D2 radioligand binding assay ([3H]N-methylspiperone competition)
- CONDITION SET: read-out: D2/binding (Ki)
METRIC NAME: pKi
Give bare numbers, as −log10 of the molar value.

Request: Can you share its pKi? I mean this compound: O=C1CCc2ccc(OCCCCN3CCCN(c4cccc(Cl)c4Cl)CC3)nc2N1
Result: 8.59

* * *

- EXPERIMENTAL SYSTEM: UniProtKB P28223
- CONDITION SET: read-out: 5HT2A/binding (Ki)
METRIC NAME: Ki (nM)
Numbers only, in nM.

Request: Can you share its Ki? I mean this compound: O=C1CCc2ccc(OCCCCN3CCCN(c4cccc(Cl)c4Cl)CC3)nc2N1
Result: 7.4

* * *

Kindly supply the reported Ki values for the records listed here.
- EXPERIMENTAL SYSTEM: 5HT1A (Homo sapiens (Human))
- METHOD NOTES: 5HT1A binding
- CONDITION SET: read-out: 5HT1A/binding (Ki)
Give bare numbers, in nM.

{"COMPOUND": "O=C1CCc2ccc(OCCCCN3CCCN(c4cccc(Cl)c4Cl)CC3)cc2N1 [Compound 2]", "Ki, nM": 60}

Now for the compound whose Ki we want.
Request: Can you share its Ki? I mean this compound: O=C1CCc2ccc(OCCCCN3CCCN(c4cccc(Cl)c4Cl)CC3)nc2N1 [Compound 3]
Result: 29

* * *

- METHOD NOTES: in vivo
- CONDITION SET: mouse, plasma
METRIC NAME: half-life (min)
Answers are plain numbers, in min.

Request: Can you share its half-life? I mean this molecule: O=C1CCc2ccc(OCCCCN3CCCN(c4cccc(Cl)c4Cl)CC3)nc2N1
Result: 48.6

* * *

- METHOD NOTES: in vivo
- CONDITION SET: mouse, brain
METRIC NAME: concentration at 8 h (ng/g)
One number for each entry, in ng/g.

Request: Can you share its concentration at 8 h? I mean this compound: O=C1CCc2ccc(OCCCCN3CCCN(c4cccc(Cl)c4Cl)CC3)nc2N1
Result: 9.9

* * *

- METHOD NOTES: in vivo
- CONDITION SET: mouse, brain
METRIC NAME: concentration at 0.08 h

Request: Can you share its concentration at 0.08 h? I mean this compound: O=C1CCc2ccc(OCCCCN3CCCN(c4cccc(Cl)c4Cl)CC3)nc2N1
Result: 37.8 ng/g
